Sourced from patent US20230081426A1

Biological target: G12V-mutant human KRAS (amino acid residues 1-188) (Homo sapiens, UniProt P01116, G12V)
Construct: G12V-mutant human KRAS (amino acid residues 1-188) with FLAG tag was purified from E. coli; made in house; host or cells: E. coli
Test: KRAS Binding Competition Assay (AlphaScreen; biotinylated KRpep-2d analogue), G12V
Conditions: geometric mean, read-out: KRAS GMean IC50 (uM) MUTATION: G12V

Compound	IC50
Cc1[nH]c2ccccc2c1-c1ccc2c(N3C[C@H]4CC[C@@H](C3)N4)nc(OCC34CCCN3CCC4)nc2c1F [P-0626]	10 to 100 µM
CN1CCc2c(cccc2Oc2nc(N3C[C@H]4CC[C@@H](C3)N4)c3ccc(-c4c(O)cccc4F)c(F)c3n2)C1 [P-0334]	10 to 100 µM
CN1CCC[C@H]1COc1nc(N2CC3CCC2CN3C(=O)CC2SC(=O)NC2=O)c2ccc(-c3cc(O)cc4ccccc34)c(F)c2n1 (stereo partly drawn) [P-0328]	0.0001 to 10 µM
N#CC1(CC(=O)N2[C@@H]3CC[C@H]2CN(c2nc(OCC45CCCN4CCC5)nc4c(F)c(-c5cc(O)cc6ccccc56)ccc24)C3)CC1 [P-0409]	0.0001 to 10 µM
CN1CCCC1COc1nc(N2C[C@H]3CC[C@@H](C2)N3C(=O)NC2CCN(C3CCCCC3)C2)c2ccc(-c3cc(O)cc4ccccc34)c(F)c2n1 (stereo partly drawn) [P-0419]	10 to 100 µM
CN1CCC[C@H]1COc1nc(N2[C@@H]3CC[C@H]2CN(C(=O)C(=O)Nc2ccccn2)C3)c2ccc(-c3cc(O)cc4ccccc34)cc2n1 [P-0229]	10 to 100 µM
